assay: Partition coefficient, log D of the compound at pH 7.4 by HPLC analysis; format: physicochemical; conditions: octanol/water
For each record, write down the corresponding logD.
No unit in the answer, only the number.

Task: Would you kindly share the measured logD for Nc1ncnc2c1sc1cc(-c3cccc(C(=O)NCC(=O)N4CCOCC4)c3)ccc12 ?
Output: 2.1

Task: # query: logD of entry CC(C)C(=O)Nc1ncc(-c2cc(C(F)F)nn2-c2c(Cl)cccc2Cl)s1
Output: 3.8

Task: Quick check: logD of Nc1ncnc2c1sc1cc(-c3cccc(-c4nn[nH]n4)c3)ccc12 ?
Output: 2

Task: What measured logD goes with CN1CCN(C(=O)Nc2cccc(-c3ccc4c(c3)sc3c(N)ncnc34)c2)CC1 ?
Output: 2.5

Task: Bench note: what logD did NC(=O)c1cccc(-c2ccc3c(c2)sc2c(N)ncnc23)c1 show?
Output: 1.9

Task: Given the entry CCNC(=O)Nc1cccc(-c2ccc3c(c2)sc2c(N)ncnc23)c1 , report its measured logD.
Output: 2.4

Task: Bench note: what logD did Nc1ncnc2c1sc1cc(-c3cccc(C(=O)NCCc4cccnc4)c3)ccc12 show?
Output: 2.7

Task: Find the recorded logD belonging to Nc1ncnc2c1sc1cc(-c3cccc(NC(=O)N4CCCC4)c3)ccc12 and report it.
Output: 2.8

Task: State the recorded logD for this entry: CCNC(=O)Nc1ncc(-c2cc(-c3c(C)cc(OC)cc3C)nc(-c3cnccn3)n2)s1
Output: 3

Task: Any idea what logD was measured for Cn1c2cc(-c3ccccc3)ccc2c2ncnc(N)c21 ?
Output: 3.4

Task: Which logD value belongs to Nc1ncnc2c1sc1cc(-c3ccccc3)ccc12 ?
Output: 3.65

Data credit: ChEMBL document CHEMBL3390844
